Tested on: DU-145
Test details: NCI tumour cell line growth inhibition, 48 h
Activity calls are given as the source filed them. Cut-off read from the data, not from the text of the source: active = GI50 up to about 1.1 µM and inactive = higher.
Measurement label: GI50

In [3]: df
Out[3]:
                                   molecule  measurement_label               result
0                           CN(C)CCCN=C(N)N               GI50  > 100 µM (inactive)
1  N=C1C(O)C2(I)c3ccccc3N3C(=N)C(O)C4c5ccccc5N1C4C32 (stereo not given)               GI50  > 100 µM (inactive)
2            CCSc1nnc2c(-c3ccccc3)n[nH]c2n1               GI50  > 100 µM (inactive)
3  CCOC(=O)CSc1nc(N)c2c(-c3ccc(OC)c(OC)c3)c3c(nc2n1)CCCC3               GI50  > 100 µM (inactive)
4  CO[C@@H]1[C@H](OC(=O)NC(=O)CCl)CC[C@]2(CO2)[C@H]1[C@@]1(C)O[C@@H]1CC=C(C)C               GI50   12.2 µM (inactive)
5                  COC(=O)/C(C)=N/N=C(\S)SC               GI50   24.3 µM (inactive)
6           COC(=O)c1ccc(NCc2cc(O)ccc2O)cc1               GI50   12.4 µM (inactive)
7  CC1=C(O)C(O)=C(C2=C(O)C(O)=C(C)C(=O)C2=O)C(=O)C1=O               GI50   31.3 µM (inactive)
8  CC1(C)OP(=O)(c2ccccc2)C=C1Sc1ccc([N+](=O)[O-])cc1[N+](=O)[O-] (stereo not given)               GI50   74.6 µM (inactive)
9  O=C(c1ccc(Cl)c(Cl)c1)N(C(=O)N1CCN(c2ccccc2)CC1)S(=O)(=O)c1ccccc1               GI50  > 100 µM (inactive)

---

System: NCI-H522
Test details: NCI tumour cell line growth inhibition, 48 h
Calls of active or inactive are those of the source. No stated cut-off is given here; in the data, active = GI50 up to about 1.1 µM and inactive = higher.
Classes used: Yes = active, No = inactive

Compound	Class
COc1ccc(NC/C=C/C(=C/COC(C)=O)OC(C)=O)cc1	No
CC(=O)c1nc2ccccc2n1CC(=O)c1ccc(Cl)cc1	No
[O-]c1c2cc(-[n+]3c(-c4ccccc4)cc(-c4ccccc4)cc3-c3ccccc3)cc1CO[C@@H](c1ccccc1)[C@H](c1ccccc1)OCc1cccc(n1)CO[C@@H](c1ccccc1)[C@H](c1ccccc1)OC2	Yes
CC(=O)N(C)CCc1c[nH]c2ccccc12	No
C/C=C\C(CC(=O)NCCC1CN(C(=O)OCc2ccccc2)c2ccccc21)CC(=O)OC (stereo not drawn)	No
Cc1cnc2sn(-c3ccc(Br)cc3)c(=O)c2c1	No
Cc1sc2nc3n(c(=O)c2c1C)N=C(c1ccc([N+](=O)[O-])cc1)CS3	No
N=c1c2c(-c3ccccc3)c[nH]c2ncn1N	No
Cc1ccc(C)c(C(=O)CC2OC(O)C(Cl)C2Cl)c1 (stereo not drawn)	No
O=c1[c-](-c2ccccc2)[se]c(-c2ccccc2)[n+]1-c1ccccc1	No
O=C1CCCC(=O)N1n1c(Cc2ccc(Cl)cc2)n[nH]c1=O	No
CC(=O)Nc1cc2cc(NS(=O)(=O)c3ccc(Cl)c(Cl)c3)ccc2oc1=O	No
CN(CCCCN1CCCC1)CCCN(C)C(=O)Cc1ccc(Cl)c(Cl)c1	No
O=C(OCc1ccc([N+](=O)[O-])cc1)N1c2ccccc2[C@@]23O[C@]24CCC[C@H]3C#C/C=C\C#C[C@H]14	No
O=C(c1ccccc1)c1ccc2n[se]nc2c1	No
CCOC(=O)Nc1nc2cc(Cn3cccc3)ccc2[nH]1	Yes
Cc1ccc(-c2nc(Cc3n[nH]c(-c4ccc(C)cc4)n3)n[nH]2)cc1	No
O=[N+]([O-])c1ccc2c(c1)Sc1ccccc1N2	No

Hey, just so you know, these numbers are from ChEMBL document CHEMBL1201862.
